Molecular target: human PDE4B1 (Homo sapiens, UniProt Q07343)
Construct: host or cells: Sf9 cells
Sequence (Q07343 whole entry): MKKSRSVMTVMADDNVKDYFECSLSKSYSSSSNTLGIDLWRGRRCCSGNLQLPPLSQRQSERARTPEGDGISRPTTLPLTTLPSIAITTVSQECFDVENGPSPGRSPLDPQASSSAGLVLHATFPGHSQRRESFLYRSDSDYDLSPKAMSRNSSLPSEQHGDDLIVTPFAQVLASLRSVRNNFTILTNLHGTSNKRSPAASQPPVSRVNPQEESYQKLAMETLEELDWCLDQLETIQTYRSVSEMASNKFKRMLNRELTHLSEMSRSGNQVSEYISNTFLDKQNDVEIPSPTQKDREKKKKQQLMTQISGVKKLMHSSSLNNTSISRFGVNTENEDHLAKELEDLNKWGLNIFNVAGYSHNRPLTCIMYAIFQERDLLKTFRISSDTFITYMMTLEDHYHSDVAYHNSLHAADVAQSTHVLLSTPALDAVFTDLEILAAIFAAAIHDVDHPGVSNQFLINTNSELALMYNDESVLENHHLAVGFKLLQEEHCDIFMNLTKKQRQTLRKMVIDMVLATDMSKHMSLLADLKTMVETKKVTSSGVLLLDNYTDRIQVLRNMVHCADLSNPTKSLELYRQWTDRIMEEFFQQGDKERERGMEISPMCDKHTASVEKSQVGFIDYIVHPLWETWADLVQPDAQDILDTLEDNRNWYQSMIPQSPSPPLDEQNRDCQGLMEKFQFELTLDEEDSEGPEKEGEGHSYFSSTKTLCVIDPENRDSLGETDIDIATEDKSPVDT
Experiment: TR-FRET assay using the LANCE Ultra cAMP kit to determine the activity of hPDE4B1
Type: biochemical
Details: test concentration 1 μM, read-out: Inhibition in % (inhibition of PDE4B)
Excerpt: TR-FRET Assay Using the LANCE® Ultra cAMP Kit to Determine the Activity of hPDE4B1 The effects of the compounds on the activity of the human PDE4B1 was quantified by measuring the production of 5′AMP from cAMP using a human recombinant enzyme expressed in Sf9 cells and the LANCE® Ultra cAMP kit, a TR-FRET detection method from PerkinElmer. The human PDE4B1 enzyme was purchased from SignalChem Lifesciences (Catalog# P92-31BG, Lot# H296-2). […]
Answer each item with its documented inhibition at 1 µM.
Could you give me the number in %? Just the number is fine.

Request: Return reported inhibition at 1 µM; argument: Cc1ccnc(-c2cnc(-n3cc([S+](C)[O-])c4ccc(C(=O)N(C)C)cc43)nc2)c1 (stereo not shown) [Example 270]
Result: 102

Request: Do the same for CCc1ccc(F)c(-c2cnc(-n3cc([S+](C)[O-])c4ccc(C(=O)N5CCCC5)cc43)nc2)c1 (stereo not shown) [Example 275] please
Result: 113

Request: What do we get for Cc1ccc(F)c(-c2cnc(-n3cc([S+](C)[O-])c4ccc(C(=O)N5C[C@@H]6C[C@H]5CN6)cc43)nc2)c1 (stereo partly shown) [Example 249] ?
Result: 93

Request: And for Cc1ccc(F)c(-c2cnc(-n3cc([S+](C)[O-])c4ccc(C(=O)N5CCCC5)cc43)nc2)c1 (stereo not shown) [Example 265] ?
Result: 98

Request: Same read-out for Cc1cccc(-c2cnc(-n3cc([S+](C)[O-])c4ccc(C(=O)N5C[C@@H]6C[C@H]5CN6)cc43)nc2)n1 (stereo partly shown) [Example 247] ?
Result: 90

Request: Same question for COc1ccnc(-c2cnc(-n3cc([S+](C)[O-])c4ccc(C(=O)N(C)CC(N)=O)cc43)nc2)c1 (stereo not shown) [Example 283] please.
Result: 92

Request: Okay, and C[S+]([O-])c1cn(-c2ncc(-c3ncc(C(N)=O)s3)cn2)c2cc(C(=O)N3CCOCC3)ccc12 (stereo not shown) [Example 208] ?
Result: 82

Request: Then this compound: C[S+]([O-])c1cn(-c2ncc(-c3cc(C(N)=O)cs3)cn2)c2cc(C(=O)N3CCOCC3)ccc12 (stereo not shown) [Example 196]
Result: 96

Request: Also Cc1ccc(F)c(-c2cnc(-n3cc(S(C)(=O)=O)c4ccc(C(=O)N5CCOCC5)cc43)nc2)c1 [Example 350] ?
Result: 93

Request: Moving on to the next compound: CN(C)C(=O)c1ccc2c([S+](C)[O-])cn(-c3ncc(-c4cc(N)ccn4)cn3)c2c1 (stereo not shown) [Example 273]
Result: 91

Request: Same again, this time with CN(C)c1ccnc(-c2cnc(-n3cc([S+](C)[O-])c4ccc(C(=O)N5C[C@@H]6C[C@H]5CN6)cc43)nc2)c1 (stereo partly shown) [Example 248]
Result: 97

Request: Now consider Cc1ccnc(-c2cnc(-n3cc(S(C)(=O)=O)c4ccc(C(=O)N5CCOCC5)cc43)nc2)c1 [Example 353] and answer again.
Result: 54

Request: Let us now turn to CCc1ccc(F)c(-c2cnc(-n3cc([S+](C)[O-])c4ccc(C(=O)N5CCOCC5)cc43)nc2)c1 (stereo not shown) [Example 276]
Result: 106

Request: // same read-out, input: CN(CC(N)=O)C(=O)c1ccc2c([S+](C)[O-])cn(-c3ncc(-c4cc(N(C)C)ccn4)cn3)c2c1 (stereo not shown) [Example 284]
Result: 104

Request: Then what about the compound Cc1ccnc(-c2cnc(-n3cc([S+](C)[O-])c4ccc(C(=O)N5CCOCC5)cc43)nc2)c1 (single isomer, unassigned) [Example 351] ?
Result: 93

Request: Try this compound too: CCc1ccnc(-c2cnc(-n3cc([S+](C)[O-])c4ccc(C(=O)N5CCOCC5)cc43)nc2)c1 (stereo not shown) [Example 259]
Result: 95

Request: Field entry: CCc1ccnc(-c2cnc(-n3cc([S+](C)[O-])c4ccc(C(=O)N5C[C@@H]6C[C@H]5CN6)cc43)nc2)c1 (stereo partly shown) [Example 246]
Result: 96

Request: And C[S+]([O-])c1cn(-c2ncc(-c3nc(C(N)=O)cs3)cn2)c2cc(C(=O)N3CCOCC3)ccc12 (stereo not shown) [Example 204] ?
Result: 82

Request: Next up: Cc1ccnc(-c2cnc(-n3cc([S+](C)[O-])c4ccc(C(=O)N5CCCC5)cc43)nc2)c1 (stereo not shown) [Example 269]
Result: 97

Request: Entry to check: CCc1ccnc(-c2cnc(-n3cc([S+](C)[O-])c4ccc(C(=O)N(C)CC(N)=O)cc43)nc2)c1 (stereo not shown) [Example 285]
Result: 91

Request: Now the same for Cc1ccnc(-c2cnc(-n3cc(S(C)(=N)=O)c4ccc(C(=O)N5CCOCC5)cc43)nc2)c1 (stereo not shown) [Example 288]
Result: 92

Request: And then CCc1ccc(F)c(-c2cnc(-n3cc([S+](C)[O-])c4ccc(C(=O)N(C)CC(N)=O)cc43)nc2)c1 (stereo not shown) [Example 280] , what is it?
Result: 93

Request: Continue with CN(C)C(=O)c1ccc2c([S+](C)[O-])cn(-c3ncc(-c4cc(N(C)C)ccn4)cn3)c2c1 (stereo not shown) [Example 272]
Result: 93

Request: Please do the same for CCNc1ccnc(-c2cnc(-n3cc([S+](C)[O-])c4ccc(C(=O)N5CCOCC5)cc43)nc2)c1 (stereo not shown) [Example 298] as well.
Result: 119

Request: Same question for CS(=N)(=O)c1cn(-c2ncc(-c3ccccc3F)cn2)c2cc(C(=O)N3CCOCC3)ccc12 (stereo not shown) [Example 287] please.
Result: 93

Request: Entry C[S+]([O-])c1cn(-c2ncc(-c3ccccc3F)cn2)c2cc(C(=O)N3CC4CNCC4C3)ccc12 (stereo not shown) [Example 222] please
Result: 73

Request: Also check CC(=O)Oc1ccc(F)c(-c2cnc(-n3cc([S+](C)[O-])c4ccc(C(=O)N5CCOCC5)cc43)nc2)c1 (stereo not shown) [Example 264]
Result: 94

Request: Can you handle C[S+]([O-])c1cn(-c2ncc(-c3ccc4c(c3)OCO4)cn2)c2cc(C(=O)N3CCOCC3)ccc12 (stereo not shown) [Example 262] next?
Result: 70
